target.system: Sos1 (Homo sapiens, UniProt Q07889)
Construct: catalytic part of Sos1 (residues 564–1049)
Sequence (Q07889 564-1049): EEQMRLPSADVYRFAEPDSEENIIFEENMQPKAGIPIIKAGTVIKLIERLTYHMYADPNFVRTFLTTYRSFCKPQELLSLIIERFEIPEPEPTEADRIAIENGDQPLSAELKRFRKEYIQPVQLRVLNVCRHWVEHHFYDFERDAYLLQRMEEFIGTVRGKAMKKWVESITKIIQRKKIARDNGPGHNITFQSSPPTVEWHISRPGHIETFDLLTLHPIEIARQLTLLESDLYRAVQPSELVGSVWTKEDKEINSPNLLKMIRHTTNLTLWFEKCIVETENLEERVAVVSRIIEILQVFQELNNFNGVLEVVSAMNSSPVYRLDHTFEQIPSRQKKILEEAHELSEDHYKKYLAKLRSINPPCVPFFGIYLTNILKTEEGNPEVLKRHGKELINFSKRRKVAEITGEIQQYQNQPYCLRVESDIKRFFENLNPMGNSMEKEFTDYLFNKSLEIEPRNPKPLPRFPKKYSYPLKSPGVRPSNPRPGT
run.description: fluorescence-based thermal shift assay (SYPRO Orange) with Langmuir Kd fit; supported by BLI of Sos1/H-Ras complex dissociation (KDapp […])
quantity.kind: Kd (mM)
Give the value, in units of mM, as a plain number.

// query Kd value for entry O=P(O)(O)OC[C@H]1OC(O)(COP(=O)(O)O)[C@@H](O)[C@@H]1O (stereo partly shown) [Fru1,6bisP]
17.5
